- Test system: Escherichia coli TOP10;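 also: peptides expressed intracellularly from a pBAD plasmid library in pooled LB shake-flask culture, induced with 0.3% L-arabinose, DNA abundance read by NGS, three biological replicates, DESeq2 with apeglm shrinkage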
- assay: shrunken log2 fold change of peptide-encoding DNA abundance (4.5 h post-induction vs induction); higher = less antimicrobial activity (less host growth inhibition)
- condition: time post-induction: 4.5 h; library: site-saturation at positions 5, 18, 19, 20
parameter-measured: shrunken log2 fold change
Answers are plain numbers.

Look at each sequence and report its shrunken log2 fold change.
1. RRIRQRPPRLPRPRPRPWYLPRP
2. RRIRWRPPRLPRPRPRPCMTPRP
3. RRIRHRPPRLPRPRPRPPQMPRP
4. RRIRKRPPRLPRPRPRPGLEPRP
5. RRIRFRPPRLPRPRPRPGPNPRP
6. RRIRSRPPRLPRPRPRPQFFPRP

Completion:
1. -0.176
2. 0.317
3. 0.149
4. 1.18
5. -0.0666
6. -0.158

Look at each sequence and report its shrunken log2 fold change.
1. RRIRWRPPRLPRPRPRPVGRPRP
2. RRIRLRPPRLPRPRPRPWVAPRP
3. RRIRMRPPRLPRPRPRPPSWPRP

Completion:
1. 0.0962
2. 0.29
3. 0.245

Look at each sequence and report its shrunken log2 fold change.
1. RRIRMRPPRLPRPRPRPTTEPRP
2. RRIRNRPPRLPRPRPRPWQFPRP
3. RRIRMRPPRLPRPRPRPPGGPRP

Completion:
1: 0.897; 2: -0.0175; 3: 1.15

Look at each sequence and report its shrunken log2 fold change.
1. RRIRKRPPRLPRPRPRPFCNPRP
2. RRIRWRPPRLPRPRPRPANKPRP
3. RRIRERPPRLPRPRPRPMTRPRP
4. RRIRGRPPRLPRPRPRPKEIPRP
5. RRIRYRPPRLPRPRPRPQDMPRP

Completion:
1. 0.128
2. -0.348
3. -0.00264
4. 0.57
5. 0.000181

Look at each sequence and report its shrunken log2 fold change.
1. RRIRDRPPRLPRPRPRPDIMPRP
2. RRIRARPPRLPRPRPRPLWCPRP

Completion:
0.0348
-0.264

Look at each sequence and report its shrunken log2 fold change.
1. RRIRTRPPRLPRPRPRPVVCPRP
2. RRIRVRPPRLPRPRPRPGKWPRP
3. RRIRWRPPRLPRPRPRPSHSPRP
4. RRIRFRPPRLPRPRPRPVCGPRP
5. RRIRERPPRLPRPRPRPCHFPRP
6. RRIRIRPPRLPRPRPRPRHPPRP
7. RRIRSRPPRLPRPRPRPCAMPRP
8. RRIRIRPPRLPRPRPRPDTFPRP

Completion:
1: 0.0187; 2: -0.141; 3: -0.0913; 4: 0.277; 5: 0.161; 6: -0.0642; 7: -0.173; 8: -0.364

Look at each sequence and report its shrunken log2 fold change.
1. RRIRCRPPRLPRPRPRPIETPRP
2. RRIRNRPPRLPRPRPRPITVPRP
3. RRIRPRPPRLPRPRPRPLPIPRP
4. RRIRTRPPRLPRPRPRPGHCPRP
5. RRIRARPPRLPRPRPRPPIMPRP
6. RRIRSRPPRLPRPRPRPVVGPRP
7. RRIRNRPPRLPRPRPRPIFPPRP

Completion:
[-0.0366, -0.0598, -0.301, -0.0671, 0.0549, 0.267, -0.281]
